Listed next: entries and their corresponding inhibition at 1 µM.
biological target: DAT (Homo sapiens, UniProt Q01959); construct: purchased Perkin Elmer; experiment: Dopamine Binding Assay ([3H]-WIN35,428 Binding Assay); settings: 2 h; 1 μM test compound; NE = Not Effective; read-out: DAT % WIN 35428 displacement 1 μM
Sequence (Q01959 whole entry): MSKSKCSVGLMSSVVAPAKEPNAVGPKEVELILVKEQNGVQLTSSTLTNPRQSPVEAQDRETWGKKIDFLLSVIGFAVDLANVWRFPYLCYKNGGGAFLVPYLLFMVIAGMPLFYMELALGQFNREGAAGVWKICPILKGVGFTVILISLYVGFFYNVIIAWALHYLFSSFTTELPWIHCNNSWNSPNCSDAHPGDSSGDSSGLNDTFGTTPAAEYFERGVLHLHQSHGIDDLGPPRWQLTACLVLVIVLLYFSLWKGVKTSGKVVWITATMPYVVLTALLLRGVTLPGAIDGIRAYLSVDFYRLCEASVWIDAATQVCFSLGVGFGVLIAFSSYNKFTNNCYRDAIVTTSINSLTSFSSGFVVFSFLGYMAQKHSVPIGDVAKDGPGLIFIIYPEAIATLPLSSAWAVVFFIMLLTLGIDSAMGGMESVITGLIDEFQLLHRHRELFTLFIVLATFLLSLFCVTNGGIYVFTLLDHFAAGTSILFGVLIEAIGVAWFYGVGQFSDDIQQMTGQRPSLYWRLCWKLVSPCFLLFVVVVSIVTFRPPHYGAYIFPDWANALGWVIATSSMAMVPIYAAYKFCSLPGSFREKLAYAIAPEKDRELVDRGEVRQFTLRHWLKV
# unit: % | format: bare number

INSERT INTO assay_data (molecule, observed_value) VALUES
  ('Clc1ccc(C(=NOCC2CC2)C2C3CNCC32)cc1Cl (stereo not shown)', 68.7),
  ('Fc1ccc(CON=CC2C3CNCC23c2ccc(Cl)c(Cl)c2)cc1 (stereo not shown)', 40.9),
  ('Clc1ccc(C(=NOCc2ccccc2)C2C3CNCC32)cc1Cl (stereo not shown)', 36);

From here, focus on the item given below.
Task item: State the recorded inhibition at 1 µM for this entry: C=CCON=C(c1ccc(Cl)c(Cl)c1)C1C2CNCC21 (stereo not shown)
Reply: 78

src = patent US9133116B2
